Every entry's value here was drawn from ChEMBL document CHEMBL1145986.

MEASUREMENT_TARGET: Protein farnesyl/geranylgeranyl transferase (Homo sapiens, UniProt P49354+P49356+P53609)
TEST: Inhibition of K-Ras processing, farnesylation and/or geranylgeranylation in human PSN1 cells
METRIC: EC50
Answer format: value, then unit.

>>> df
                                   molecule  measurement
0  CN1CCCC[C@@](C)(c2cccc(Oc3cc([C@](C)(N)c4cncn4C)ccc3C#N)c2)C1=O      3730 nM

Request: Recorded EC50 for CC[C@@]1(c2cccc(Oc3cc([C@@](C)(N)c4cncn4C)ccc3C#N)c2)CCCCN(C)C1=O (stereo in doubt) , please?
Response: 230 nM

Request: Recorded EC50 for CC[C@@]1(c2cccc(Oc3cc([C@](C)(N)c4cncn4C)ccc3C#N)c2)CCCCN(C)C1=O , please?
Response: 340 nM

Request: Recorded EC50 for CC[C@]1(c2cccc(Oc3cc([C@](C)(N)c4cncn4C)ccc3C#N)c2)CCCCN(C)C1=O (stereo in doubt) , please?
Response: 1900 nM

Request: Recorded EC50 for CC[C@]1(c2cccc(Oc3cc([C@@](C)(N)c4cncn4C)ccc3C#N)c2)CCCCN(C)C1=O , please?
Response: 8000 nM

Request: Recorded EC50 for CCC[C@@]1(c2cccc(Oc3cc([C@](C)(N)c4cncn4C)ccc3C#N)c2)CCCCN(C)C1=O , please?
Response: 100 nM

Request: Recorded EC50 for CN1CCCC[C@@](CCC2CC2)(c2cccc(Oc3cc([C@](C)(N)c4cncn4C)ccc3C#N)c2)C1=O , please?
Response: 1290 nM

Request: Recorded EC50 for CN1CCCC[C@@](CCC(F)(F)F)(c2cccc(Oc3cc([C@](C)(N)c4cncn4C)ccc3C#N)c2)C1=O , please?
Response: 207 nM

Request: Recorded EC50 for CCCC[C@@]1(c2cccc(Oc3cc([C@](C)(N)c4cncn4C)ccc3C#N)c2)CCCCN(C)C1=O , please?
Response: 320 nM

Request: Recorded EC50 for CN1CCCC[C@@](CC2CC2)(c2cccc(Oc3cc([C@](C)(N)c4cncn4C)ccc3C#N)c2)C1=O , please?
Response: 220 nM
